Record form. Attribute: growth. Fill in for each entry.
- System: SF-295 CNS
- protocol summary: NCI-60 one-dose screen, 48 h (100 = growth as untreated, 0 = no growth, -100 = all killed)
- condition: 10 µM unless noted
The panel holds about 83,000 compounds, 20% with a hit somewhere; the sample as a whole holds those more often. The source made the active and inactive calls. The calls were made as follows: active = growth percent below 10; inactive = the rest.

Look up growth for this molecule: Cc1cccc(C)c1NCc1nnc(-c2ccc(O)cc2)o1
96.5% (inactive)

Request the reported growth associated with COc1cc(NC(=O)Nc2cnc(Nc3ccc(N4CCOCC4)cc3)nc2Oc2ccc(F)cc2)cc(OC)c1
109% (inactive)

So what's the measured growth for this one? CCCCC(=O)Nc1c(C(=O)Nc2ccccc2)sc2nc3c(cc12)C(OC(=O)CCCC)CCC3 (stereo not given)
101% (inactive)

growth lookup needed for COc1ccc(Cc2nc(C#N)c(N3CCN(c4ccc(F)cc4)CC3)o2)cc1 , thanks.
95.5% (inactive)

Form field: reported growth of Cc1nn(-c2ccc(-c3ccc(OC(F)(F)F)cc3)cc2)c2nc(-c3ccccc3)nc(N)c12
110% (inactive)

Dear colleague, I am looking for the recorded growth of the following molecule: O=c1cc(/C=N\Nc2nc(-c3ccc(Cl)cc3Cl)cs2)c2cc(Cl)ccc2o1
95.2% (inactive)

Item O=C(Nc1nccs1)c1noc2ccccc12 has what recorded growth?
101% (inactive)

Which growth is reported for this molecule? COc1ccc(C2C(c3ccccc3)C(=O)N2c2cc(OC)c(OC)c(OC)c2)cc1I (stereo not given)
17.9% (inactive)

Can you share its growth? I mean this molecule: COc1cc2nc3c(=O)n(-c4ccc(C#N)cc4)cnn3c(=O)c2cc1OC
99.8% (inactive)

Need growth of CS(=O)(=O)O[C@@H]1C(=O)N(c2cc3c4ccccc4ccc3c3ccccc23)[C@H]1c1ccc(F)cn1 , thanks.
9.48% (active)

###

- System: SK-OV-3 ovarian
- protocol summary: NCI-60 one-dose screen, 48 h (100 = growth as untreated, 0 = no growth, -100 = all killed)
- condition: 10 µM unless noted
The panel holds about 83,000 compounds, 20% with a hit somewhere; the sample as a whole holds those more often. Calls of active or inactive are those of the source. Rule for the calls: active = growth percent below 10; inactive = the rest.
I'd be grateful if you could share measured growth for these entries.

Name the reported growth value associated with the compound NS(=O)(=O)c1ccc(-n2nc(-c3ccccc3)ccc2=O)cc1
99.6% (inactive)

Endpoint output: growth of C#C[C@@]1(O)[C@@H](CO)O[C@@H](n2cc(Cl)c3c(N)ncnc32)[C@@H]1O . Value?
-10.3% (active)

Could you tell me which growth is on file for Nc1c(C(=O)Nc2cccc3ccccc23)sc2nc3c(cc12)CCCCCC3 ?
25.7% (inactive)

Requested field: growth. Item: COc1ccc2[nH]c(-c3ccccc3)c(C=C(C#N)C#N)c2c1
51.2% (inactive)

Would you kindly share the measured growth for COc1ccc(/C(=N\O)c2cc(C)c(OC)c(C)c2)cc1O ?
51.2% (inactive)

###

- System: SF-539 CNS
- protocol summary: NCI-60 one-dose screen, 48 h (100 = growth as untreated, 0 = no growth, -100 = all killed)
- condition: 10 µM unless noted
This is part of a sample that, as a whole, favours compounds with a hit. Of some 83,000 tested, about 20% had one in any assay.
Consider the following compounds; for each one, report its growth.
Could you give me the number in %? Just the number is fine.

Would you mind telling me what growth value was observed for O=C1NN(c2ccccc2)C(c2ccc(Cl)cc2)N2CCC[C@H]12 (stereo not given in full) ?
111

Given Nc1cc(N)c(S(=O)(=O)O)cc1N=Nc1cc([N+](=O)[O-])ccc1O , state its recorded growth.
102

Find the recorded growth belonging to CSc1nc(-c2ccco2)c2c(N)[nH]nc2n1 and report it.
97.5

Please report the recorded growth for CCCCC1=c2c([nH]c3ccc(OC)cc23)=NC2C=CC=NC12 (stereo not given) .
93.7

I would be grateful if you could share the reported growth for C=C(C)[C@@H]1CC[C@]2(C(=O)N3CCN(C)CC3)CC[C@]3(C)[C@H](CC[C@@H]4[C@@]5(C)C/C(=C/c6ccco6)C(=O)C(C)(C)[C@@H]5CC[C@]43C)[C@@H]12 .
62
